Several reports have described log10 IC50 for Tyrosinase (Agaricus bisporus, UniProt O42713); a selection of those results is presented here.
Please keep in mind that the values are log10 of IC50 expressed in µM.

Solved entries:
Molecule	Endpoint Label	Measured Value
OC[C@H]1O[C@@H](OCCCCc2ccc(O)cc2O)[C@H](O)[C@@H](O)[C@@H]1O	log10 IC50	0.13
O=C(/C=C/c1ccc(O)cc1)OCC(=O)Oc1ccc2ccc(=O)oc2c1	log10 IC50	2.09
CC(=O)N1N=C(c2cc(O)cc(O)c2)CC1c1ccc(O)cc1 (stereo not drawn)	log10 IC50	2.21
C[C@@H]1O[C@@H](OC[C@H]2O[C@@H](Oc3ccccc3/C=C/CO)[C@H](O[C@@H]3[C@@H](OCc4ccccc4)O[C@@H](CO[C@@H]4OC[C@](O)(CO)[C@H]4O)[C@H](O)[C@H]3O)[C@@H](O)[C@@H]2O)[C@H](O)[C@H](O)[C@H]1O	log10 IC50	2.97
COc1cccc(OC(=O)COC(=O)c2ccc(O)cc2)c1	log10 IC50	2.53

Now, please, on to the next molecule.
Incoming: log10 IC50 of CC(=O)N1N=C(c2ccc(O)cc2O)CC1c1cccc(O)c1 (stereo not drawn) on Tyrosinase (Agaricus bisporus, UniProt O42713)?
Outgoing: -0.06

---

Several reports have described IC50 for Tyrosinase (Agaricus bisporus, UniProt O42713); a selection of those results is presented here.
Answer with a number only, understood to be in µM.

Incoming: Need IC50, item `O=C(O)CSc1nnc(NC(=S)Nc2cccc(C(F)(F)F)c2)s1`
Outgoing: 6.13

Incoming: Need IC50, item `O=C(O)/C=C/c1ccc(O)cc1`
Outgoing: 121

Incoming: Need IC50, item `COc1ccc(C(C)=O)c(OC(=O)/C=C/c2ccc(F)cc2)c1`
Outgoing: 8.3

Incoming: Need IC50, item `CC(C)C(=O)N1CCC(Cc2ccc(F)cc2)CC1`
Outgoing: 35.3

Incoming: Need IC50, item `C/C(CCc1ccc(OCc2ccc(Br)cc2)cc1)=N\NC(N)=S`
Outgoing: 0.438

Incoming: Need IC50, item `CCCOC(=O)CCC(=O)c1cc(C(C)C)c(OCC)cc1C`
Outgoing: 154

Incoming: Need IC50, item `COc1ccc(/C=C/C(=O)NCCc2c[nH]c3ccc(O)cc23)cc1OC`
Outgoing: 322

Incoming: Need IC50, item `CCCCCS(=O)(=O)Cc1cc(=O)c(O)co1`
Outgoing: 76.6

Incoming: Need IC50, item `COc1ccccc1-c1nnc(SCC(=O)Nc2ccc(Br)cc2)o1`
Outgoing: 0.046

Incoming: Need IC50, item `CCO/N=C\c1ccc(O)c(O)c1`
Outgoing: 0.3

Incoming: Need IC50, item `CCCCCCCCCC(=O)N/C(=C\c1ccc(O)cc1)C(=O)O`
Outgoing: 130

Incoming: Need IC50, item `COc1cc(-c2ccc(C(=O)O)cc2)cc(OC)c1O`
Outgoing: 50

Incoming: Need IC50, item `CCCCCCCCC(=O)N/C(=C\c1ccc(O)cc1)C(=O)O`
Outgoing: 250

Incoming: Need IC50, item `O=C(CSc1nnc(-c2ccccc2)o1)Nc1ccccc1`
Outgoing: 0.231

Incoming: Need IC50, item `CCCC(=O)Nc1ccc(/C(C)=N/NC(N)=S)cc1`
Outgoing: 0.644

Incoming: Need IC50, item `O=C(NCc1ccc(O)cc1O)c1cc(O)cc(O)c1`
Outgoing: 2.2

Incoming: Need IC50, item `OC[C@H]1O[C@@H](OCCCc2ccc(O)cc2O)[C@H](O)[C@@H](O)[C@@H]1O`
Outgoing: 3.62
